- TESTED SYSTEM: YES1 (human)
- MEASUREMENT NOTES: KINOMEscan competition binding
- MEASUREMENT CONTEXT: compound 10.0 µM
PROPERTY LABEL: kinase still bound, per cent of control

Worked cases, answers included:
[
  {
    "STRUCTURE": "NC(=O)c1ccc(-c2cc(C(N)=O)c(N)c(-c3ccc(S(N)(=O)=O)cc3)c2)cc1",
    "VALUE OBSERVED": "no effect (inactive)"
  },
  {
    "STRUCTURE": "NC(=O)c1ccc(Nc2cc(-c3ccc(F)cc3)[nH]n2)cc1",
    "VALUE OBSERVED": "no effect (inactive)"
  },
  {
    "STRUCTURE": "c1ccc(-c2n[nH]cc2-c2ccnc3ccccc23)nc1",
    "VALUE OBSERVED": "no effect (inactive)"
  },
  {
    "STRUCTURE": "O=C1Nc2ccccc2/C1=C/c1ccc[nH]1",
    "VALUE OBSERVED": "no effect (inactive)"
  },
  {
    "STRUCTURE": "Cc1ccc(O)cc1Nc1ccnc(Nc2cccc(C(N)=O)c2)n1",
    "VALUE OBSERVED": "0%"
  }
]

Provide the documented kinase still bound, per cent of control with YES1 (human) as the system for Cc1ccc(NC(=O)c2cccc(N3CCCCC3)c2)cc1-c1ccc(C(=O)NCC2CC2)cc1 no effect (inactive)

Would you kindly repeat that for CC(=O)c1c(-c2ccncc2)[nH]c(-c2ccncc2)c1C ? no effect (inactive)

Would you kindly repeat that for Nc1ncnc2c1c(-c1cccc(O)c1)cn2C1CCNCC1 ? 0%

Would you kindly repeat that for CCS(=O)(=O)Nc1ccc2c(c1)[C@H](/C(=N/c1ccc(CN3CCCCC3)cc1)c1ccccc1)C(=O)N2 ? 0%

Would you kindly repeat that for N#Cc1ccc(-c2cnc3[nH]cc(NC(=O)c4cccnc4)c3c2)cc1 ? no effect (inactive)

---

- TESTED SYSTEM: TNIK (human) (UniProt Q9UKE5)
- Sequence (Q9UKE5 whole entry, looked up): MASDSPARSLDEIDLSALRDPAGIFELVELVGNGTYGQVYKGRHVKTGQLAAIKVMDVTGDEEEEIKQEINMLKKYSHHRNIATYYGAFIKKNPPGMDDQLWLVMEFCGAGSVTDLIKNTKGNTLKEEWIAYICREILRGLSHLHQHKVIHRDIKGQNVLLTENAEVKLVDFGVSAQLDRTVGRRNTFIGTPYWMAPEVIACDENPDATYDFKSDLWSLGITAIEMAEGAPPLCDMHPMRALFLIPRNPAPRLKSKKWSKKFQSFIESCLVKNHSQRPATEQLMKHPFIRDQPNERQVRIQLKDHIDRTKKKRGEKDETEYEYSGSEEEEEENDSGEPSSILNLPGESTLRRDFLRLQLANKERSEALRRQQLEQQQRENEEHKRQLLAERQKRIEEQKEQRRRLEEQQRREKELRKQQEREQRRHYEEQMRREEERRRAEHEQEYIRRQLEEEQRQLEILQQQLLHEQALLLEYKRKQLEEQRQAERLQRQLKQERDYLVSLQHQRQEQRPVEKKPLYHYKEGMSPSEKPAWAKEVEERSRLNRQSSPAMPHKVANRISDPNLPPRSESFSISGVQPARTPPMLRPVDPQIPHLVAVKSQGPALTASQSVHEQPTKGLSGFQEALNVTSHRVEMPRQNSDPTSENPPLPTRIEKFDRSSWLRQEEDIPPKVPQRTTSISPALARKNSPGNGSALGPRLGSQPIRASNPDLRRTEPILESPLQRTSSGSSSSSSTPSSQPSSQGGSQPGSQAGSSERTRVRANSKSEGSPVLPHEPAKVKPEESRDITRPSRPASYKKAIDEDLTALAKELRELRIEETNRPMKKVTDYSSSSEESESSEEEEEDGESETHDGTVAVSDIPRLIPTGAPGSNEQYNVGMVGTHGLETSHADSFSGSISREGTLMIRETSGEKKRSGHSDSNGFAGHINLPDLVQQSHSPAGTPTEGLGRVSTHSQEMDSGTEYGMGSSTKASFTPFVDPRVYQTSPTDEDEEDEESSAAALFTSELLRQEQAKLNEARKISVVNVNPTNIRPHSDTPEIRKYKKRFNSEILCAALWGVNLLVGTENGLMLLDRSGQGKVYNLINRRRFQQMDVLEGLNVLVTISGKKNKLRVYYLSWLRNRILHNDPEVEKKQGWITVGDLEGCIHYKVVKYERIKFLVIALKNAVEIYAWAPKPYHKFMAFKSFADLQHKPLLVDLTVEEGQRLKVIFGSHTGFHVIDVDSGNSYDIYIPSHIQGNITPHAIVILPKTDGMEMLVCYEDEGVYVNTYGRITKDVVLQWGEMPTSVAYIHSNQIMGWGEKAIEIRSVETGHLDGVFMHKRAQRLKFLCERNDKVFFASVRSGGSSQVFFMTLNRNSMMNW
- MEASUREMENT NOTES: KINOMEscan competition binding
- MEASUREMENT CONTEXT: compound 10.0 µM

[
  {
    "STRUCTURE": "Cc1ccc(NC(=O)c2cccc(N3CCCCC3)c2)cc1-c1ccc(C(=O)NCC2CC2)cc1",
    "TESTED SYSTEM": "TNIK (human) (UniProt Q9UKE5)",
    "kinase still bound, per cent of control": "no effect (inactive)"
  },
  {
    "STRUCTURE": "CCS(=O)(=O)Nc1ccc2c(c1)[C@H](/C(=N/c1ccc(CN3CCCCC3)cc1)c1ccccc1)C(=O)N2",
    "TESTED SYSTEM": "TNIK (human) (UniProt Q9UKE5)",
    "kinase still bound, per cent of control": "0%"
  },
  {
    "STRUCTURE": "CC(=O)c1c(-c2ccncc2)[nH]c(-c2ccncc2)c1C",
    "TESTED SYSTEM": "TNIK (human) (UniProt Q9UKE5)",
    "kinase still bound, per cent of control": "no effect (inactive)"
  },
  {
    "STRUCTURE": "NC(=O)c1ccc(-c2cc(C(N)=O)c(N)c(-c3ccc(S(N)(=O)=O)cc3)c2)cc1",
    "TESTED SYSTEM": "TNIK (human) (UniProt Q9UKE5)",
    "kinase still bound, per cent of control": "no effect (inactive)"
  }
]
